Where do these numbers come from? They come from patent US20230219942A1.

- MEASURED_ON: PD-1/PD-L1 interaction (Homo sapiens, UniProt Q9NZQ7)
- Construct: Tag1 or Tag2 (undisclosed kit tag); purchased Cisbio
- Sequence (Q9NZQ7 19-238 limits assumed): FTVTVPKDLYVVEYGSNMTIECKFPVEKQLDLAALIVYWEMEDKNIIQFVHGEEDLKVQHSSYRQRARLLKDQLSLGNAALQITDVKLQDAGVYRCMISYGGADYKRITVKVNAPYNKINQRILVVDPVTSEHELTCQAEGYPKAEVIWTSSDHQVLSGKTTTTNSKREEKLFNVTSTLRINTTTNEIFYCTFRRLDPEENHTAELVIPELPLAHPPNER
- TEST_METHOD_NOTES: Cisbio PD-1/PD-L1 Homogeneous Time-Resolved Fluorescence (HTRF) binding assay
- CONDITION_CONTEXT: Table 9; same result in μM; read-out: Reported IC50
READOUT_NAME: IC50

Worked cases, IC50 given:
| COMPOUND | IC50 |
| --- | --- |
| COc1cc(C(=O)N2CCN(Cc3csc(NC[C@@H]4CCCN4Cc4cnc(C)s4)n3)CC2)cc(OC)c1OC | 26 µM |
| O=C(c1ccc(Cl)cc1)N1CCN(Cc2csc(NCC3CCCN3Cc3ccc(Br)cc3)n2)CC1 (centres unmarked) | > 5 µM |
| O=C(c1ccc2c(c1)OCO2)N1CCN(Cc2csc(NC[C@@H]3CCCN3Cc3ccc(Br)cc3)n2)CC1 | 0.88 µM |
| COc1cccc(C(=O)N2CCN(Cc3csc(NC[C@@H]4CCCN4Cc4ccc(Br)cc4)n3)CC2)c1 | 0.53 µM |
| O=C(C1CC1)N1CCN(Cc2csc(NC[C@@H]3CCCN3Cc3ccc(Br)cc3)n2)CC1 | 2 µM |
| COc1cc(C(=O)N2CCN(Cc3csc(NC[C@@H]4CCCN4Cc4ccc(S(C)(=O)=O)cc4)n3)CC2)cc(OC)c1OC | 0.69 µM |
| COc1cc(C(=O)N2CCN(Cc3csc(NC[C@@H]4CCCN4Cc4ccncc4)n3)CC2)cc(OC)c1OC | 10 µM |
| Cn1cnc2cc(C(=O)N3CCN(Cc4csc(NCC5CCCN5Cc5ccc(Br)cc5)n4)CC3)ccc21 (centres unmarked) | 0.98 µM |

Provide IC50 values for the following items, in order.
1. COc1cc(C(=O)N2CCN(Cc3csc(NC[C@@H]4CCCN4Cc4ccc(C(F)F)cc4)n3)CC2)cc(OC)c1OC
2. COc1cc(C(=O)N2CCN(Cc3csc(NC[C@@H]4CCCN4Cc4ccc(Br)cc4)n3)CC2)cc(OC)c1OC
3. COc1cc(C(=O)N2CCN(Cc3csc(NC[C@@H]4CCCN4Cc4ccc(C(F)(F)F)cc4)n3)CC2)cc(OC)c1OC
4. Cn1cc(C(=O)N2CCN(Cc3csc(NC[C@@H]4CCCN4Cc4ccc(Br)cc4)n3)CC2)ccc1=O
5. COc1ccc(C(=O)N2CCN(Cc3csc(NC[C@@H]4CCCN4Cc4ccc(Br)cc4)n3)CC2)cc1OC
6. COc1ccc(CN2CCC[C@H]2CNc2nc(CN3CCN(C(=O)c4cc(OC)c(OC)c(OC)c4)CC3)cs2)cc1

["0.35 µM", "0.051 µM", "0.14 µM", "> 5 µM", "0.62 µM", "9.2 µM"]
